tested on: K-562 leukemia; assay: NCI-60 one-dose screen, 48 h; settings: 10 µM unless noted
This is part of a sample that, as a whole, favours compounds with a hit. Of some 83,000 tested, about 20% had one in any assay. Active and inactive are the calls of the source. The calls were made as follows: active = growth percent below 10; inactive = the rest.
Possible outcomes: true for active, false for inactive

compound | label.class
Cn1c2c(c3ccc(-c4ccn[nH]4)cc3c1=O)C(=O)c1ccccc1-2 | false
CCN1CCC[C@H]1c1cc(O)c2c(c1OC)C[C@H]1C[C@H]3[C@H](N)C(=O)C(C(N)=O)=C(O)[C@@]3(O)C(=O)C1=C2O | true
CCOC(=O)c1c(C)nc2c(c1N)CC(=O)N2CCc1ccccc1 | false
COc1ccc(/C(=N\O)c2cc(C)c(OC)c(C)c2)cc1O | false
Cc1cnc(-c2ccc(-c3ccc(NC(=O)Nc4c(F)cc(F)cc4F)cc3F)c3c2C(=O)NC3)[nH]1 | false
CC[C@]12C=CCN3CC[C@@]4(c5cc(NC(=O)CCC(=O)O[C@H]6CC[C@H]7[C@@H]8CC[C@H]9CC(=O)CC[C@]9(C)[C@H]8CC[C@]67C)c(OC)cc5N(C)[C@H]4[C@@](O)(C(=O)OC)[C@@H]1OC(C)=O)[C@@H]32 | false
CC(=O)Oc1c2c(nc3c1c1ccccc1n3Cc1ccccc1)-c1ccccc1C2 | false
C[C@@H]1C(=O)[C@@H]2C[C@@H](O)[C@@H](O)C[C@]2(C)[C@H]2CC[C@@]3(C)C(=C12)CC[C@@H]3[C@@](C)(O)[C@H](O)CCC(C)(C)O | false
O=C(Nc1nc(-c2ccccc2Cl)cs1)c1cc(-c2ccc(Br)cc2)nc2ccccc12 | false
COc1ccc(-c2[nH]c3ccccc3c2C=C(C#N)C#N)cc1 | true
O=C(O)COc1ccc2c(=O)c3sc4c(=O)c5ccccc5c(=O)c4c3c(=O)c2c1 | false
OCCNc1nc(NCCO)nc(Nc2ccc(C3=NN(c4cc(Cl)cc(Cl)c4)C(c4ccc(C(F)(F)F)cc4)C3)cc2)n1 (stereo not drawn) | false
CC1(c2ccccc2Cl)NC(=O)NC1=O (stereo not drawn) | false

---

tested on: MALME-3M melanoma; assay: NCI-60 one-dose screen, 48 h; conditions: 10 µM unless noted
This is part of a sample that, as a whole, favours compounds with a hit. Of some 83,000 tested, about 20% had one in any assay. Active and inactive are the calls of the source. Rule for the calls: active = growth percent below 10; inactive = the rest.
Possible outcomes: active, inactive

compound | target.system | label.class
N#Cc1c(-c2ccc(F)cc2)nc(N=Nc2c(O)[nH]c3ccccc23)nc1N1CCOCC1 | MALME-3M melanoma | inactive
Clc1ccc2c(NCCCNC3CCCCC3)ccnc2c1 | MALME-3M melanoma | inactive
COc1ccc(-n2cc(-c3ccc(Cl)c(Cl)c3)[nH]c2=O)cc1OC | MALME-3M melanoma | inactive
COc1ccc(/C=C/C(=O)/C=C(/C=C/c2ccc(OC)c(OC)c2)OB(F)F)cc1OC | MALME-3M melanoma | inactive
Cc1nccc2c3ccc(OCc4cn(-c5ccc(Cl)cc5)nn4)cc3n(CC(C)C)c12 | MALME-3M melanoma | active
COc1cc(NC(=O)COc2cc(C)nc3ccc(OC)cc23)cc(OC)c1 | MALME-3M melanoma | inactive
COC(=O)[C@]1(C)CCC[C@]2(C)[C@H]3C[C@H]4C(C(C)C)=C[C@]3(CC[C@H]21)[C@@H]1C(=O)N(CCC#N)C(=O)[C@@H]14 | MALME-3M melanoma | inactive
Sc1cccc2cccnc12 | MALME-3M melanoma | inactive
COc1cc(C2CC(c3ccc(Nc4nc(NCCO)nc(NCCO)n4)cc3)=NN2c2cc(Cl)cc(Cl)c2)cc(OC)c1OC (centres undefined) | MALME-3M melanoma | active
